Form: system (monomeric Aβ1-42 (Homo sapiens, UniProt P05067)), quantity (pIC50), values below.
Please express pIC50 as -log10 of the molar concentration.

Lab note: need pIC50 for `CC(=O)N[C@@H](/C=C/C(C)(C)C(=O)O)Cc1c[nH]c2ccccc12` on monomeric Aβ1-42 (Homo sapiens, UniProt P05067), anyone have it?
7.38

Repeat with `CNC(=O)C(C)(C)/C=C/[C@H](N)Cc1c[nH]c2ccccc12`
8.17

Entry to check: `CC(C)(/C=C/[C@H](N)Cc1c[nH]c2ccccc12)C(N)=O`
9.30
